- target-entity: JNK1-dc20 (JNK1 with the C-terminal 20 residues truncated) (human, UniProt P45983 1-427)
- Sequence (P45983 other isoform, or with tags, fused parts or gaps): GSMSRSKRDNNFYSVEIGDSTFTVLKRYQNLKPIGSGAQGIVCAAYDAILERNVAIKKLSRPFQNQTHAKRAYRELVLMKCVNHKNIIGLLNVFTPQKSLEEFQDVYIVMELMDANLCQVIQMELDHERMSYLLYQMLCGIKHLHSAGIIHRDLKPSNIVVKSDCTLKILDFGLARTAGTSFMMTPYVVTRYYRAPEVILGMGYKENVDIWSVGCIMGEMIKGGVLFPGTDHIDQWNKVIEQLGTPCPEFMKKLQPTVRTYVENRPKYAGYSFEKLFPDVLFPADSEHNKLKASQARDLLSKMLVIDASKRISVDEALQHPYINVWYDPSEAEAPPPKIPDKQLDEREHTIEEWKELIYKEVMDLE
- assay-info: ITC
parameter-measured: pKd
Note: pKd values are expressed as the negative base-10 logarithm of concentration in M.

pKd for MSDDKPFLCTAPGCGQRFTNEDHLAVHKHKHEMTLKFGPA (domain or fragment) [ATF2(19–58)-His6 (MBP removed, for ITC)] ?
5.29

Data origin, for the record: paper PMC7666158
